- METHOD_DESCRIPTION: Maximum tolerated dose (MTD) in mice
- EXPERIMENTAL_CONTEXT: mouse, in vivo
READOUT_KIND: MTD at 9 day (mg/kg)
Kindly answer with a numeric value in mg/kg, unit omitted.

Task item: // lookup MTD at 9 day for Nc1ccn([C@H]2C[C@H](O)[C@@H](CO)S2)c(=O)n1
Reply: 2
